- tested on: c-Cbl (Homo sapiens (Human), UniProt P22681)
- Sequence (P22681 47-435): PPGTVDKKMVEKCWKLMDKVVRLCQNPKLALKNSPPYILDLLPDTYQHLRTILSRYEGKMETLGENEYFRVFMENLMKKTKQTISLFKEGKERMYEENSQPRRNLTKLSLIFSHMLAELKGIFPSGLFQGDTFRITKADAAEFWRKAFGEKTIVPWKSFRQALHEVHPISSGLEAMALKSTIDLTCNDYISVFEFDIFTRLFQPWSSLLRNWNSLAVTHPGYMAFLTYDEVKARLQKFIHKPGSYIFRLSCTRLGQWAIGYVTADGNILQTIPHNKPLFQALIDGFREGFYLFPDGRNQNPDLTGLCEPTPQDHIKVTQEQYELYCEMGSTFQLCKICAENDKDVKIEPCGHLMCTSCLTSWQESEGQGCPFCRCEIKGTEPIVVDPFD
- assay explanation: C-Cbl LCK Ub TR-FRET assay (c-cbl Lck HTRF)
- Assay type: biochemical
- condition set: C-cbl Lck HTRF IC50 relative to Cbl-b Lck HTRF IC50
parameter measured: (fold-selectivity) (x)
Express it in x; write the number only.

Task item: Give the reported value of (fold-selectivity) for this record: `Cn1cnnc1[C@H](F)C1(c2cccc(N3Cc4c(cc(CC5CNC5)cc4C(F)(F)F)C3=O)c2)COC1`
Reply: 1.4

Task item: Give the reported value of (fold-selectivity) for this record: `Cn1cnnc1[C@@H](F)C1(c2cccc(N3Cc4c(cc(CN5CC(C)(CO)C5)cc4C(F)(F)F)C3=O)c2)CC1`
Reply: 1.7

Task item: Give the reported value of (fold-selectivity) for this record: Cn1cnnc1[C@@H](F)C1(c2cccc(N3Cc4c(cc(CN5CC6CC6C5)cc4C(F)(F)F)C3=O)c2)COC1 (stereo partly shown)
Reply: 2.0

Task item: Give the reported value of (fold-selectivity) for this record: `Cn1cnnc1[C@@H](F)C1(c2cccc(N3Cc4c(cc(CN5CC(S(C)(=O)=O)C5)cc4C(F)(F)F)C3=O)c2)COC1`
Reply: 1.8

Task item: Give the reported value of (fold-selectivity) for this record: `Cn1cnnc1[C@@H](F)C1(c2cccc(N3Cc4c(cc(CN5CC6(COC6)C5)cc4C(F)(F)F)C3=O)c2)COC1`
Reply: 2.3

* * *

- tested on: Cbl-b (Homo sapiens (Human))
- Sequence (Q13191 40-426): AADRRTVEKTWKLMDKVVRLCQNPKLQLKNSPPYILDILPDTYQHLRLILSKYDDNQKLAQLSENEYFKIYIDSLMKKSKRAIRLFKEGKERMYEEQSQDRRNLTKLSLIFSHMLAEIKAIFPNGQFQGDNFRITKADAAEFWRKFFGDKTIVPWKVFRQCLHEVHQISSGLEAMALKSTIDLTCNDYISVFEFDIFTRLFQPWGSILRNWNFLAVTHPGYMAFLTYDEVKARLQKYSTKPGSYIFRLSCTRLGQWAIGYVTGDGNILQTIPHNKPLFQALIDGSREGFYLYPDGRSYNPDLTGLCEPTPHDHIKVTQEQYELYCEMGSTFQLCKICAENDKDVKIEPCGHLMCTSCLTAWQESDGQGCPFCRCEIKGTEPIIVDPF
- assay explanation: Cbl-b LCK Ub TR-FRET assay (Cbl-b Lck HTRF)
- Type: biochemical
parameter measured: pIC50
When answering, recall that pIC50 equals minus log10 of the concentration in mol/L, and write that number alone.

Task item: Give the reported value of pIC50 for this record: Cn1cnnc1[C@@H](F)C1(c2cccc(N3Cc4c(cc(CN)cc4C(F)(F)F)C3=O)c2)CC(F)(F)C1.O=CO [Compound 394, formate]
Reply: 6.92

Task item: Give the reported value of pIC50 for this record: `CCNCc1cc2c(c(C(F)(F)F)c1)CN(c1cccc(C3([C@@H](F)c4nncn4C)COC3)c1)C2=O`
Reply: 7.42

Task item: Give the reported value of pIC50 for this record: `CC(C)[C@H]1CN(C)CCN1Cc1cc2c(c(C(F)(F)F)c1)CN(c1cccc(C3([C@H](F)c4nncn4C4CC4)COC3)c1)C2=O`
Reply: 5.74

Task item: Give the reported value of pIC50 for this record: `Cn1cnnc1[C@H](F)C1(c2cccc(N3Cc4c(Cl)cccc4C3=O)c2)COC1`
Reply: 6.68

* * *

- tested on: Cbl-b (Homo sapiens (Human))
- assay explanation: Cbl-b LCK Ub TR-FRET assay (Cbl-b Lck HTRF)
- Assay type: biochemical
- Procedure: Compounds were 3-fold serially diluted in DMSO in a 384-well polypropylene plate (#P-05525-BC; Labcyte) to generate a source plate with 10 concentrations of each compound, top concentration=2 mM. […] Plates were read for TR-FRET using an Envision at excitation 340 nm, emission at 615 and 665 nm, 4 flashes per well. […] Cbl-b Lck HTRF data in Table 7 is measured according to Example 76 herein; C-cbl Lck HTRF data is measured according to Example 76 herein.
parameter measured: pIC50
When answering, recall that pIC50 equals minus log10 of the concentration in mol/L, and write that number alone.

Task item: Give the reported value of pIC50 for this record: `CC(C)Nc1cc(N2Cc3c(cc(CN4CCN(C)C[C@@H]4C(C)C)cc3C(F)(F)F)C2=O)cc(C2(Cc3nncn3C)CCC2)c1`
Reply: 7.89

Task item: Give the reported value of pIC50 for this record: `Cn1cc(-c2cc(C3(Cc4nncn4C)CCC3)cc(N3Cc4c(cc(CNC5(C)CCC5)cc4C(F)(F)F)C3=O)n2)cn1`
Reply: 7.92

Task item: Give the reported value of pIC50 for this record: `Cn1cnnc1CC1(c2cc(C3CCC3)nc(N3Cc4c(cccc4C(F)(F)F)C3=O)c2)COC1`
Reply: 6.06

Task item: Give the reported value of pIC50 for this record: Cn1cnnc1[C@H](F)C1(c2cccc(N3Cc4c(cc(CN5CC(C)(O)C5)cc4C(F)(F)F)C3=O)c2)CC1 (single isomer, unassigned)
Reply: 7.19

Task item: Give the reported value of pIC50 for this record: `Cn1cnnc1[C@@H](F)C1(c2cccc(N3Cc4c(cc(CN5CC6(CCO6)C5)cc4C(F)(F)F)C3=O)c2)COC1`
Reply: 6.42

Task item: Give the reported value of pIC50 for this record: `CNS(=O)(=O)CCNc1cc(C2(Cc3nncn3C)CCC2)cc(N2Cc3c(cc(CNC4(C)CCC4)cc3C(F)(F)F)C2=O)n1`
Reply: 7.15

* * *

- tested on: UniProt P22681
- assay explanation: C-Cbl LCK Ub TR-FRET assay (c-cbl Lck HTRF)
- Format: biochemical
parameter measured: pIC50
When answering, recall that pIC50 equals minus log10 of the concentration in mol/L, and write that number alone.

Task item: Give the reported value of pIC50 for this record: Cn1cnnc1CC1(c2cccc(N3Cc4c(cc(CN5CC[C@@H](CCl)C5)cc4C(F)(F)F)C3=O)c2)COC1 [Compound 101]
Reply: 7.64

Task item: Give the reported value of pIC50 for this record: Cn1cnnc1CC1(c2cccc(N3Cc4c(cc(CNC5(C)CC(F)C5)cc4C(F)(F)F)C3=O)c2)CC(F)(F)C1 (stereo not shown) [Compound 341]
Reply: 8.00

Task item: Give the reported value of pIC50 for this record: Cn1cnnc1CC1(c2cc(NC3CCCC3)cc(N3Cc4c(cc(CNC5(C)CCC5)cc4C(F)(F)F)C3=O)c2)CC(F)(F)C1 [Compound 477]
Reply: 6.96

Task item: Give the reported value of pIC50 for this record: Cn1cnnc1CC1(c2cc(NCCc3ccncc3)nc(N3Cc4c(cc(CNC5(C)CCC5)cc4C(F)(F)F)C3=O)c2)CCC1 [Compound 321]
Reply: 7.64

* * *

- tested on: c-Cbl (Homo sapiens (Human), UniProt P22681)
- assay explanation: C-Cbl LCK Ub TR-FRET assay (c-cbl Lck HTRF)
- Format: biochemical
- Method: 6 μL of detection mixture was added to all wells and briefly centrifuged before incubating for 20 min at room temperature. […] IC50 was generated using no LCK as the low control and DMSO as the high control.
parameter measured: IC50 (nM)
Express it in nM; write the number only.

Task item: Give the reported value of IC50 for this record: `CCN1CCN(Cc2cc3c(c(C(F)(F)F)c2)CN(c2cccc(C4([C@H](F)c5nncn5C)CC(F)(F)C4)c2)C3=O)[C@@H](C(C)C)C1`
Reply: 8.2

Task item: Give the reported value of IC50 for this record: `Cn1cnnc1[C@H](F)C1(c2cccc(N3Cc4c(cc(CN5CC(C)(C)C5)cc4C(F)(F)F)C3=O)c2)COC1`
Reply: 110

Task item: Give the reported value of IC50 for this record: `Cn1cnnc1CC1(c2cccc(N3Cc4c(cc(CNCC(C)(C)C)cc4C(F)(F)F)C3=O)c2)CC(F)(F)C1`
Reply: 9.6

* * *

- tested on: c-Cbl (Homo sapiens (Human), UniProt P22681)
- assay explanation: C-Cbl LCK Ub TR-FRET assay (c-cbl Lck HTRF)
- Type: biochemical
pIC50: −log10 of the molar value. Counter-ions that a name gives are not always drawn.
Mark false (0) for pIC50 values under 7, and true (1) for everything at or above.

Task item: Does Cn1cnnc1[C@@H](F)C1(c2cccc(N3Cc4c(cc(CN5CC6(COC6)C5)cc4C(F)(F)F)C3=O)c2)COC1 [Compound 10] have a reported pIC50 of at least 7?
Reply: false (0)

Task item: Does CC(C)[C@H]1CN(C)CCN1Cc1cc2c(c(C(F)(F)F)c1)CN(c1cccc(C3([C@H](F)c4nncn4C)CC(F)(F)C3)c1)C2=O [Compound 190] have a reported pIC50 of at least 7?
Reply: true (1)

Task item: Does Cn1cnnc1CC1(c2cccc(N3Cc4c(Cl)cc(CNC5(C)CCC5)cc4C3=O)c2)CC(F)(F)C1 [Compound 252, formate] have a reported pIC50 of at least 7?
Reply: true (1)

Task item: Does C[C@H]1CN(C)CCN1Cc1cc2c(c(C(F)(F)F)c1)CN(c1cccc(C3(Cc4nncn4C)CC(F)(F)C3)c1)C2=O [Compound 214] have a reported pIC50 of at least 7?
Reply: true (1)

Task item: Does Cn1cnnc1CC1(c2cc(NC3CCCC3)nc(N3Cc4c(cccc4C(F)(F)F)C3=O)c2)CCC1 [Compound 296] have a reported pIC50 of at least 7?
Reply: false (0)

Task item: Does COC1(C)CN(Cc2cc3c(c(C(F)(F)F)c2)CN(c2cccc(C4([C@H](F)c5nncn5C)COC4)c2)C3=O)C1 [Compound 180] have a reported pIC50 of at least 7?
Reply: false (0)

Task item: Does Cn1cnnc1[C@@H](F)C1(c2cccc(N3Cc4c(cc(CN5CC(C(F)F)C5)cc4C(F)(F)F)C3=O)c2)COC1 [Compound 138] have a reported pIC50 of at least 7?
Reply: false (0)

Task item: Does CC(C)[C@H]1CN(C)CCN1Cc1cc2c(c(C(F)(F)F)c1)CN(c1cccc(C3([C@@H](F)c4nncn4-c4ccccc4)COC3)c1)C2=O [Compound 259] have a reported pIC50 of at least 7?
Reply: false (0)

Task item: Does CC(C)[C@H]1CN(C)CCN1Cc1cc2c(c(C(F)(F)F)c1)CN(c1cc(C3([C@H](F)c4nncn4C)CCC3)cc(NCC3CC3)n1)C2=O [Compound 279] have a reported pIC50 of at least 7?
Reply: true (1)

Task item: Does CC(C)Oc1cccc2c1CN(c1cccc(C3([C@@H](F)c4nncn4C)COC3)c1)C2=O [Compound 207] have a reported pIC50 of at least 7?
Reply: false (0)
